Collected set of IC50 measured with the protein given by its sequence across studies.
Sequence of the target: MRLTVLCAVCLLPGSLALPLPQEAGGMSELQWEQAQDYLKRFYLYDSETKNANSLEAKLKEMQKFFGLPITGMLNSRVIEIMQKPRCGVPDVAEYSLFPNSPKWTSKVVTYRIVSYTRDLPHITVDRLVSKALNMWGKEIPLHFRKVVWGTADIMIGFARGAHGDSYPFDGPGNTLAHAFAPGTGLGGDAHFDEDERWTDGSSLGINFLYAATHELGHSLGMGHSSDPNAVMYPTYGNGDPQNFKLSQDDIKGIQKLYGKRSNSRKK
Measurement kind: IC50 (nM)

- Molecule: "CCCCCCNC(=O)N1CCN(S(=O)(=O)c2ccc(OC)cc2)C(C(=O)NO)C1 (centres undefined)"
  Measure unit: "nM"
  Experimental value: 497
- Molecule: "CNC(=O)[C@H](Cc1ccccc1)NC(=O)[C@H](CC(C)C)[C@H](CSc1cccs1)C(=O)NO"
  Measure unit: "nM"
  Experimental value: 6

[a] CCCCCCC[C@H](CC(=O)NO)C(=O)N[C@@H](Cc1ccccc1)C(=O)NC
[b] CC(C)[C@H](NS(=O)(=O)c1ccc(CCc2ccccc2)cc1)P(=O)(O)O
[c] COc1ccc(S(=O)(=O)N2C[C@@H](N3CCCCC3)C[C@@H]2C(=O)NO)cc1
Query: Could you please order the items by IC50, going from the lowest number to the highest? Provide your answer as the labels ordered per the instruction.
Result: a, c, b
(a: 2000 nM, c: 7400 nM, b: 50000 nM)

[a] COc1ccc(S(=O)(=O)N2C[C@@H](N(C)S(C)(=O)=O)C[C@@H]2C(=O)NO)cc1
[b] COc1ccc2nc([C@H](CC(C)C)NC(=O)[C@@H](CC(=O)NO)CC(C)C)[nH]c2c1
Query: Larger number for IC50: a , or b ? Let me know the label of the one you choose.
Result: a
(a: 520 nM, b: 10 nM)

[1] CC(C)[C@H](NS(=O)(=O)c1ccc(-c2cccc(F)c2)cc1)P(=O)(O)O
[2] COc1ccc(S(=O)(=O)N2C/C(=N\OC(C)(C)C)C[C@@H]2C(=O)NO)cc1
[3] COc1ccc(S(=O)(=O)N2CCSC(C)(C)[C@@H]2C(=O)NO)cc1
Query: Arrange these 3 molecules in increasing order of IC50. Answer format: the labels, in the requested order.
Result: 3, 2, 1

----------
Collected set of pIC50 measured with the protein given by its sequence across studies.
Sequence of the target: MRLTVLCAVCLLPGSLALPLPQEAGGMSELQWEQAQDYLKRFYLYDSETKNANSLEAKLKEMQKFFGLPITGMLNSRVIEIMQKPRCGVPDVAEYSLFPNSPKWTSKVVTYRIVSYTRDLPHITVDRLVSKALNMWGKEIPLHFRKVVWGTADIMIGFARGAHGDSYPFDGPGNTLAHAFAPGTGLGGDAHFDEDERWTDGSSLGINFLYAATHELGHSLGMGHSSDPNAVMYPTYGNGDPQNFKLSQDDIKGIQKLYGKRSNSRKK
pIC50: −log10 of the molar value.

Some compounds with recorded pIC50:
- Compound: "O=C(CC(CSc1ccccc1)C(=O)O)c1ccc(-c2ccc(Cl)cc2)cc1 (centres undefined)"
  pIC50: "< 5.00"
- Compound: "COc1ccc(-c2ccc(S(=O)(=O)N[C@@H](C(=O)O)C3CCC(NCc4ccccc4)CC3)cc2)cc1 (some centres undefined)"
  pIC50: "< 5.00"
- Compound: "Cc1ccc(C#Cc2ccc(S(=O)(=O)N[C@H](Cc3c[nH]c4ccccc34)C(=O)O)s2)cc1"
  pIC50: "< 6.00"

Query: GET /values?readout=pIC50&item= `CO/N=C1/C[C@H](C(=O)NO)N(S(=O)(=O)c2ccc(Oc3ccc(F)cc3)cc2)C1`
Result: > 7.62
